target: Beta-2 adrenergic receptor (Homo sapiens) (UniProt P07550); assay: agonist-induced loss of surface beta2AR – cell-based, FAP fluorogen, flow cytometry, validation set, pilot screen (AID 504459); conditions: Am2.2-beta2AR cells, at 10 µM, active compounds read high;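 note: agonist-driven loss of surface beta2AR via internalization measured by FAP dye flow cytometry; reference of the scale not given here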
Sequence (P07550 whole entry, looked up): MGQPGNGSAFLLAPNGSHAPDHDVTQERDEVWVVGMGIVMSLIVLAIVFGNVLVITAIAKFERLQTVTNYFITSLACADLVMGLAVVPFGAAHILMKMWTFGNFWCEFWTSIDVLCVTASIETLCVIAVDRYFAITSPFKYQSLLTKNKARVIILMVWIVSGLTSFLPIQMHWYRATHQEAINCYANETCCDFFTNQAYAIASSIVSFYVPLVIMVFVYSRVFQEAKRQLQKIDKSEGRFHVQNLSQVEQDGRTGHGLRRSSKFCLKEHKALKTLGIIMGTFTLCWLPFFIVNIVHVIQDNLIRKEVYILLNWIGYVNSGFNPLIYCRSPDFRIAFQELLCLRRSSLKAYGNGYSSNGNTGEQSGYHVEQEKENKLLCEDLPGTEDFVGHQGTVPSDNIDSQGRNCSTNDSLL
METRIC NAME: response (%)
Value expressed in %; do not type the unit.

(Q) Specify measured response for COc1cc(CO)ccc1OCc1nnnn1-c1ccc(C)cc1 .
(A) 6.38

(Q) Specify measured response for CCCc1c(OCCCCc2nn[nH]n2)ccc(C(C)=O)c1O .
(A) 8.37

(Q) Specify measured response for COc1ccc(CCNc2ncnc3c2[nH]c2cc(OC)c(OC)cc23)cc1OC .
(A) 19.8

(Q) Specify measured response for CCOc1ccc(N2C(=O)CC(NCCNc3ccc([N+](=O)[O-])cn3)C2=O)cc1 (stereo not drawn) .
(A) 1.65

(Q) Specify measured response for COC(=O)c1ccccc1NC(=O)c1ccc(COc2ccc3c(c2)CCC3)cc1 .
(A) -3.71

(Q) Specify measured response for COc1ccc2[nH]cc(C3N4CC5(C)CN3CC(C)(C4)C5=O)c2c1 (stereo not drawn) .
(A) -5.37

(Q) Specify measured response for C=C(C)Cn1c(NCCOC)nc2c1c(=O)[nH]c(=O)n2C .
(A) 3.03

(Q) Specify measured response for CC1(C)C(=O)OC(C(=O)c2ccc(Cl)cc2)C(C)(C)C1=O (stereo not drawn) .
(A) -5.23

(Q) Specify measured response for Cc1nc(N)nc2c1CCCC2 .
(A) -4.6

(Q) Specify measured response for CCOC(=O)c1cc2c(nc1N)CC(C)(CC)OC2 (stereo not drawn) .
(A) -13.4

(Q) Specify measured response for O=S(=O)(CCc1nc2ccccc2[nH]1)c1ccc(Cl)cc1 .
(A) 13.4

(Q) Specify measured response for CSc1cccc(NC(=O)/C=C/c2ccccc2)c1 .
(A) 1.66

(Q) Specify measured response for NS(=O)(=O)c1cc2c(cc1C(F)(F)F)NC(Cc1ccccc1)NS2(=O)=O (stereo not drawn) .
(A) 1.02
